Measured pIC50 on HCV RdRp (NS5B) follows.
pIC50: −log10 of the molar value.

> print(dat)
                                   molecule  measured.result
1  Cc1ccc(NC(=O)[C@H](CCCCN)NC(=O)CNc2ccc(F)cc2)cc1           < 4.30
2  Cc1ccc(NC(=O)CC2CN(C(=O)CCN)CCN2C(=O)OCC2c3ccccc3-c3ccccc32)cc1 (stereo not shown)           < 4.30
3  Cc1ccc(NC(=O)[C@H](CCCCN)NC(=O)CNCc2ccccc2F)cc1           < 4.30
4  CCCC[C@H](NC(=O)OCC1c2ccccc2-c2ccccc21)C(=O)Nc1ccc(CN(C(=O)c2ccco2)C2CCCCC2)cc1           < 4.30

Ask: State the recorded pIC50 for this entry: Cc1ccc(NC(=O)C(Cc2cccnc2)NC(=O)OCC2c3ccccc3-c3ccccc32)cc1 (stereo not shown)
Result: < 4.30

Ask: State the recorded pIC50 for this entry: `CC(C)(C)c1ccc(NC(=O)[C@H](Cc2ccc(CN)cc2)NC(=O)Nc2ccc(OCc3ccccc3)cc2)cc1`
Result: > 5.00

Ask: State the recorded pIC50 for this entry: COC(=O)c1cccc(COc2ccc(NC(=O)NC(CCCCN)C(=O)Nc3ccc(C)cc3)cc2)c1 (stereo not shown)
Result: 4.30 to 5.00

Ask: State the recorded pIC50 for this entry: `NCCCC[C@H](NC(=O)OCC1c2ccccc2-c2ccccc21)C(=O)NCCc1c[nH]c2ccccc12`
Result: < 4.30

###

Measured IC50 on HCV RdRp (NS5B) follows.

> print(dat)
                                   molecule  experimental.endpoint  measured.result
1  Cc1ccc(NC(=O)[C@H](CCCCN)NC(=O)COc2ccc(F)cc2)cc1 [Compound 329]                   IC50          > 50 µM
2  Cc1ccc(NC(=O)C(CCCN)NC(=O)OCC2c3ccccc3-c3ccccc32)cc1 (stereo not shown) [Compound 101]                   IC50          > 50 µM
3  NCCCC[C@H](NC(=O)OCC1c2ccccc2-c2ccccc21)C(=O)Nc1ccc2[nH]ncc2c1 [Compound 82]                   IC50          > 50 µM
4  NCCC[C@@H](NC(=O)Nc1ccc2c(c1)Cc1ccccc1-2)C(=O)Nc1ccc(C2CCCCC2)cc1 [Compound 203]                   IC50          < 10 µM
5  COc1ccc(S(=O)(=O)N[C@@H](CCCCN)C(=O)Nc2ccc(C)cc2)cc1OC [Compound 386]                   IC50          > 50 µM
6  CC1CCC(NC(=O)[C@H](CNC(=O)CN)NC(=O)Nc2ccc(OCc3ccccc3)cc2)CC1 (stereo partly shown) [Compound 306]                   IC50      10 to 50 µM

Ask: State the recorded IC50 for this entry: Cc1ccc(NC(=O)C(Cc2ccc(CN)cc2)NC(=O)OCC2c3ccccc3-c3ccccc32)cc1 (stereo not shown) [Compound 175]
Result: < 10 µM

Ask: State the recorded IC50 for this entry: Cc1ccccc1NC(=O)C(CCCCN)NC(=O)OCC1c2ccccc2-c2ccccc21 (stereo not shown) [Compound 45]
Result: > 50 µM

Ask: State the recorded IC50 for this entry: Cc1ccc(NC(=O)C(CCCCN)NC(=O)Nc2ccc(C=Cc3ccccc3)cc2)cc1 (stereo not shown) [Compound 236]
Result: < 10 µM

Ask: State the recorded IC50 for this entry: NCCCC[C@H](NC(=O)c1ccccc1)C(=O)Nc1ccc(CN(C(=O)c2ccco2)C2CCCCC2)cc1 [Compound 27]
Result: > 50 µM

Ask: State the recorded IC50 for this entry: O=C(CC1CNCCN1C(=O)NCc1ccc(Cl)c(Cl)c1)Nc1ccc(C2CCCCC2)cc1 (stereo not shown) [Compound 160]
Result: 10 to 50 µM

Ask: State the recorded IC50 for this entry: NCc1ccc(NC(=O)C(NC(=O)Nc2ccc(OCc3ccccc3)cc2)c2ccccc2)cc1 (stereo not shown) [Compound 305]
Result: < 10 µM

Ask: State the recorded IC50 for this entry: Cc1ccc(NC(=O)C(CCCCN)NC(=O)COc2cccc(C(F)(F)F)c2)cc1 (stereo not shown) [Compound 332]
Result: > 50 µM

Ask: State the recorded IC50 for this entry: Cc1ccc(NC(=O)[C@H](CCCCN)NS(=O)(=O)c2cccc3nonc23)cc1 [Compound 398]
Result: > 50 µM

Ask: State the recorded IC50 for this entry: Cc1ccc(NCC(=O)N[C@@H](CCCCN)C(=O)Nc2ccc(C)cc2)cc1 [Compound 356]
Result: > 50 µM

Ask: State the recorded IC50 for this entry: Cc1ccc(NC(=O)CC2CN(C(=O)C(C)N)CCN2C(=O)OCC2c3ccccc3-c3ccccc32)cc1 (stereo not shown) [Compound 185]
Result: > 50 µM
